Data credit: patent US20100184134A1

# TESTED SYSTEM: GluRS (Escherichia coli)
# Sequence (P04805 whole entry): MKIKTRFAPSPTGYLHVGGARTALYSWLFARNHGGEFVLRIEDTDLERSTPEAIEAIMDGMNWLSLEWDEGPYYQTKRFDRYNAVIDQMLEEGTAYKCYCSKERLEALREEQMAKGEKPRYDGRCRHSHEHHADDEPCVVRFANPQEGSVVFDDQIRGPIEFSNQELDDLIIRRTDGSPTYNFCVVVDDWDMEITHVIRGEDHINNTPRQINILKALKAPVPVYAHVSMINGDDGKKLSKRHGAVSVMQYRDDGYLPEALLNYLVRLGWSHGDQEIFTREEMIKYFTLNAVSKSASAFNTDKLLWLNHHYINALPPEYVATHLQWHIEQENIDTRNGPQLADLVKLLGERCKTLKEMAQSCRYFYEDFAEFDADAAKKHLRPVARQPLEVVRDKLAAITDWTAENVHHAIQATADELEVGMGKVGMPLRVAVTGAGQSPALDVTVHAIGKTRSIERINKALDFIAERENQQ
MEASURED PROPERTY: pIC50
Numbers only, as −log10 of the molar value.

Please report pIC50 with GluRS (Escherichia coli) for item Nc1ncnc2c1ncn2[C@@H]1O[C@H](COS(=O)(=O)NC(=O)[C@@H](N)CCC(=O)O)[C@@H](O)[C@H]1O [Glu-SA] .
7.27
